- MEASURED_TARGET: TLR2/6 (Homo sapiens, UniProt O60603)
- ASSAY_COMMENT: NF-κβ (ELAM)-luciferase reporter assay in transiently transfected HEK293T cells, P2C
- CONDITION_CONTEXT: NF-κβ reporter assay in HEK293T cells, 1 μM-250 μM, P2C 50 ng/mL 5 hrs; read-out: IC50 for human TLR2/6 signaling
MEASURE: IC50 (µM)
Numeric answer only, unit µM assumed.

Any idea what IC50 came out for COc1cccc(/C=N/c2cccc(C(=O)O)c2C)c1O on TLR2/6 (Homo sapiens, UniProt O60603)? 37.6

Input COc1cccc(C=O)c1O [Compound C29L, ortho-vanillin] 37.2

---

- MEASURED_TARGET: TLR2/1 (Homo sapiens, UniProt O60603)
- Sequence (O60603 21-784): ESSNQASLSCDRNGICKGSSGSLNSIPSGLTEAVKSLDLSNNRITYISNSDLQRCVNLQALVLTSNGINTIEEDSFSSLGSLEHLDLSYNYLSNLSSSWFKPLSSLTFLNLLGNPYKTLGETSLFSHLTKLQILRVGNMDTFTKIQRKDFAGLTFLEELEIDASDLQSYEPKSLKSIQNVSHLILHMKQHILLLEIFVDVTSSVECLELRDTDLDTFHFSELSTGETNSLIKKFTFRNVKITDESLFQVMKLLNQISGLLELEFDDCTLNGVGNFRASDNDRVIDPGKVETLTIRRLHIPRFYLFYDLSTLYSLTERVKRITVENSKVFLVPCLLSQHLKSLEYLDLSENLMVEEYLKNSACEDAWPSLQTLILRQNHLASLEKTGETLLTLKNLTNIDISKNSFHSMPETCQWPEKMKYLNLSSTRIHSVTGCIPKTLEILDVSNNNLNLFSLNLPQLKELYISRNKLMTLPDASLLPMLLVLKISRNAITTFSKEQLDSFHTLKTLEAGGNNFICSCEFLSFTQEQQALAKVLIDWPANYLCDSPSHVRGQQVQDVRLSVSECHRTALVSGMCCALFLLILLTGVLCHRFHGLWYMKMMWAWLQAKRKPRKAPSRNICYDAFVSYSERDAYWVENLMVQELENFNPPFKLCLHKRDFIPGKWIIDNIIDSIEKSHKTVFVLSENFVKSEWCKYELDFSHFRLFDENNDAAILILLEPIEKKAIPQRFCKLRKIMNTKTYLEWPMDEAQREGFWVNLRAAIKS
- ASSAY_COMMENT: NF-κβ (ELAM)-luciferase reporter assay in transiently transfected HEK293T cells, P3C
- Format: cell-based
- Set-up: expressed in transfected cells; host or cells: HEK293T, transient transfection (Superfect)
- CONDITION_CONTEXT: NF-κβ reporter assay in HEK293T cells, 1 μM-250 μM, P3C 50 ng/mL 5 hrs; read-out: IC50 for human TLR2/1 signaling
MEASURE: pIC50
Conceptually, pIC50 converts a concentration in mol/L into minus its log10.

Any idea what pIC50 came out for COc1cccc(C=O)c1O [Compound C29L, ortho-vanillin] on TLR2/1 (Homo sapiens, UniProt O60603)? 4.62

Input COc1cccc(/C=N/c2cccc(C(=O)O)c2C)c1O 4.71

Source: patent US12653800B2
